assayedSystem: PTP1B-OX (Homo sapiens, UniProt P18031)
Sequence (P18031 1-321): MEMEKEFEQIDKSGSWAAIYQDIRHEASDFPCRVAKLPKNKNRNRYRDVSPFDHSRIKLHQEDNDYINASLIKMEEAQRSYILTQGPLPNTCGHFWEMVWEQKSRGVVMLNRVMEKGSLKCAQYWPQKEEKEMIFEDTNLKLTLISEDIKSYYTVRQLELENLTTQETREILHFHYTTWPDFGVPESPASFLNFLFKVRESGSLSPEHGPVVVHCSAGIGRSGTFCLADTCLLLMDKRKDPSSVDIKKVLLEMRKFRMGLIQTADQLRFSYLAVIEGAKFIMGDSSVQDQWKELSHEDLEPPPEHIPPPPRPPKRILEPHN
Give measured pIC50 for each item. Keep answers brief.
To interpret pIC50, take it as minus log10 of a concentration measured in moles per litre.

GET /values?readout=pIC50&system=PTP1B-OX (Homo sapiens, UniProt P18031)&item= COc1ccc2c(c[n+](C)c3c4cc5c(cc4ccc23)OCO5)c1OC 5.30

State its pIC50 on PTP1B-OX (Homo sapiens, UniProt P18031): C[n+]1cc2c3c(ccc2c2ccc4cc5c(cc4c21)OCO5)OCO3 4.60

Give PTP1B-OX (Homo sapiens, UniProt P18031) pIC50 for c1ccc([C@H]2CN3CCSC3=N2)cc1 4.44

----------
assayedSystem: PTP1B-OX (Homo sapiens)
Construct: Purified PTP1B (1–321) (100 nM) was mixed with increasing concentrations of H2O2; 6xHis (C); made in house; host or cells: E. coli BL21 (DE3)-RIL
experiment: reduction and reactivation of reversibly oxidized PTP1B by TCEP, DiFMUP substrate
Format: biochemical
reportedConditions: DiFMUP substrate
reportedMetric: Ki (µM)
# number only, unit µM dropped from output

Look up Ki: COc1ccc2c(c[n+](C)c3c4cc5c(cc4ccc23)OCO5)c1OC [chelerythrine] 5

----------
assayedSystem: K36A/K41A PTP1B-OX mutant (Homo sapiens, UniProt P18031, K36A/K41A)
Construct: PTP1B (1–321) and TCPTP (1–317) cloned in pET21b vector were used as templates; 6xHis (C)
experiment: reduction and reactivation of oxidized PTP1B-K36A/K41A, DiFMUP, TCEP
reportedConditions: TCEP 5 mM, DiFMUP; read-out: IC50 against K36A/K41A PTP1B-OX mutant
reportedMetric: IC50
Field note: include the unit after the figure.

Look at this compound and give its reported IC50. COc1ccc2c(c[n+](C)c3c4cc5c(cc4ccc23)OCO5)c1OC [chelerythrine] 75 µM
